# credit: paper PMC8083607

System: SARS-CoV-2 S2 (recombinant) (SARS-CoV-2)
Method Description: SPR

| Binder | Kd (nM) |
| --- | --- |
| FC118 (antibody, V domains shown) VH: EVQLLESGGGVVQPGRSLRLSCAASGFTFSSYAMHWVRQAPGKGLEWVAVISYDGSNKYYADSVKGRFTISRDNSKNTLYLQMNSLRAEDTAVYYCARARGGSYLYGMDVWGQGAMVTVSS VL: DIELTQSPSSLAASVGDTVTITCRASQTIGKYLTWYQKKPGRAPDLLIYAASRLQSGVPSRFSGRASGTEFTLTISSLQPEDFATYFCQHTYRTLSFGPGTKVDLK | 41.1 |
